Numbers sourced from PubChem BioAssay AID1159580.

experiment: chemical genetic growth profiling, strain panel (AID 1159580);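 note: tested at 20 µM; growth read once vehicle control cultures reached saturation at 30 °C; 1 = growth at the plate median or of vehicle wells; lower values mean less growth of the strain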; settings: S. cerevisiae deletion strains, growth OD, locus YCL016C, strain dcc1
Hit rate of the full screen: of about 5,500 compounds, about 2,000 (36%) were called active. Another 18% or so got no clear call; they are omitted. Cut-off read from the data, not from the text of the source: active = normalized growth mostly below about 0.91 (no sharp cut-off); inconclusive = no clear call, values can overlap the other calls; inactive = mostly above about 0.92. This is one part of the list.
Assign a class; possible classes are 1.0 (active), 0.0 (inactive)

Reference set, count: 4
{"columns": ["compound", "assigned_category"],
 "data": [
  ["Cc1cn[nH]c1", 0.0],
  ["N[C@@H](CCC(=O)N[C@@H](CS)C(=O)NCC(=O)O)C(=O)O", 0.0],
  ["CO[C@H]1CC(O[C@@H]2/C(C)=C/C[C@@H]3C[C@@H](C[C@]4(CC[C@H](C)[C@@H](C5CCCCC5)O4)O3)OC(=O)[C@@H]3C=C(C)/C(=N\\O)[C@H]4OC/C(=C\\C=C\\[C@@H]2C)[C@]43O)O[C@@H](C)C1O (stereo not given in full)", 0.0],
  ["O=C1NC(O)=NC1(c1ccccc1)c1ccccc1", 0.0]
]}

**Q:** Returns: the outcome recorded for Oc1c(Cl)cc(Cl)cc1Sc1cc(Cl)cc(Cl)c1O in this assay.
**A:** 1.0

**Q:** Returns: the outcome recorded for CC(CCc1ccccc1)NCC(O)c1ccc(O)c(C(N)=O)c1 (stereo not given) in this assay.
**A:** 0.0

**Q:** Returns: the outcome recorded for OC[C@H]1O[C@@](CO)(O[C@@H]2O[C@H](CO)[C@@H](O)[C@H](O)[C@H]2O)[C@@H](O[C@@H]2O[C@H](CO)[C@@H](O)[C@H](O)[C@H]2O)[C@@H]1O in this assay.
**A:** 0.0

**Q:** Returns: the outcome recorded for CC(C)=CC1C(C(=O)O)C1(C)C (stereo not given) in this assay.
**A:** 0.0

**Q:** Returns: the outcome recorded for CC(=O)O[C@H]1CCC2(C)C3=C(CCC2C1(C)C)[C@]1(C)CCC(C(C)CCC=C(C)C)[C@@]1(C)CC3 (stereo not given in full) in this assay.
**A:** 0.0

**Q:** Returns: the outcome recorded for CC(C)NCC(O)COc1ccc(COCCOC(C)C)cc1 (stereo not given) in this assay.
**A:** 0.0

**Q:** Returns: the outcome recorded for O=C(O)c1cccnc1 in this assay.
**A:** 0.0

**Q:** Returns: the outcome recorded for COC(=O)/C(=C1\OC(=O)C(c2ccccc2)=C1O)c1ccccc1 in this assay.
**A:** 0.0

**Q:** Returns: the outcome recorded for CN(C)C(=O)Oc1cccc([N+](C)(C)C)c1 in this assay.
**A:** 0.0

**Q:** Returns: the outcome recorded for NC(=O)c1cccnc1 in this assay.
**A:** 0.0

**Q:** Returns: the outcome recorded for Cc1nc(N)cc(C[n+]2csc(CCO)c2C)n1 in this assay.
**A:** 0.0

---

test: chemical genetic growth profiling, strain panel (AID 1159580);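 note: tested at 20 µM; growth read once vehicle control cultures reached saturation at 30 °C; 1 = growth at the plate median or of vehicle wells; lower values mean less growth of the strain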; settings: S. cerevisiae deletion strains, growth OD, locus YDL005C, strain med2, hits give low values
Hit rate of the full screen: of about 5,500 compounds, about 2,000 (36%) were called active. Inconclusive results (about 18%) are left out. This is one part of the list.
I'd appreciate it if you could supply normalized growth values for the items below.
One number for each entry.

I need normalized growth for every entry listed below, if you could help.
1. CN(C)[C@@H]1C(=O)C(C(N)=O)=C(O)[C@@]2(O)C(=O)C3=C(O)c4c(O)ccc(Cl)c4[C@@H](O)[C@H]3C[C@@H]12
2. CC[N+](C)(C)c1cccc(O)c1
3. O=C(OCc1ccccc1)c1ccccc1

**A:**
1. 0.983
2. 1.02
3. 0.981

I need normalized growth for every entry listed below, if you could help.
1. CC(C)c1ccc2c(c1)CCC1[C@](C)(CN)CCC[C@]21C (stereo not given in full)
2. CC(=O)O[C@H]1CC[C@@]2(C)C(=CC(=O)C3C4CCC(C(C)CCCC(C)C)[C@@]4(C)CCC32)C1 (stereo not given in full)
3. Oc1c(Cl)cc(Cl)cc1Sc1cc(Cl)cc(Cl)c1O

**A:**
1: 1.03; 2: 0.971; 3: 0.0721

I need normalized growth for every entry listed below, if you could help.
1. O=C(OOC(=O)c1ccccc1)c1ccccc1
2. C=C1c2cccc(O)c2C(O)=C2C(=O)[C@]3(O)C(O)=C(C(N)=O)C(=O)[C@@H](N(C)C)[C@@H]3[C@@H](O)[C@H]12
3. CC1(C)CC2C1CC[C@]1(C)CCC3C(C(=O)O)CC(=O)O[C@@]32C1 (stereo not given in full)

**A:**
0.977
1.02
1.04

I need normalized growth for every entry listed below, if you could help.
1. C=C1c2c(Cl)ccc(O)c2C(O)=C2C(=O)[C@]3(O)C(O)=C(C(N)=O)C(=O)[C@@H](N(C)C)[C@@H]3[C@@H](O)[C@H]12
2. C[n+]1ccccc1/C=N/O
3. CCCN(CCC)S(=O)(=O)c1ccc(C(=O)O)cc1
4. NC(=O)NC(=O)Cc1ccccc1
5. CC1=CC(=O)c2c(O)cccc2C1=O
6. CCOC(=O)NNc1nncc2ccccc12
7. CC(C)(C)NC[C@H](O)c1ccc(O)c(CO)c1
8. N=C(N)N

**A:**
[0.99, 0.986, 0.987, 0.98, 0.0698, 1.03, 1.02, 0.987]

I need normalized growth for every entry listed below, if you could help.
1. O=C(O)C1=CCCNC1
2. Cc1cn[nH]c1
3. CC(=O)O[C@H]1CCC2(C)C3=C(CCC2C1(C)C)[C@@]1(C)CC[C@@H](C(C)CCC=C(C)C)[C@]1(C)CC3 (stereo not given in full)
4. CNCCCC12CCC(c3ccccc31)c1ccccc12
5. CC12CCC3C(CC3(C)C)C(C)(CCC1=O)O2 (stereo not given)
6. CC(C)NCC(O)COc1ccc(COCCOC(C)C)cc1 (stereo not given)

**A:**
1: 0.978; 2: 1.03; 3: 1.03; 4: 0.972; 5: 0.972; 6: 1

I need normalized growth for every entry listed below, if you could help.
1. Cc1cc(=O)oc2cc(O)c(O)cc12
2. CC(=O)Oc1ccc(/C=C/c2cc(OC(C)=O)cc(OC(C)=O)c2)cc1
3. CCCSc1ccc2nc(NC(=O)OC)[nH]c2c1
4. O=C(O)c1cccnc1
5. CCN1CCN(C(=O)NC(C(=O)N[C@@H]2C(=O)N3[C@@H]2SC(C)(C)[C@@H]3C(=O)O)c2ccccc2)C(=O)C1=O (stereo not given in full)

**A:**
[0.98, 0.963, 1.03, 0.98, 0.988]

I need normalized growth for every entry listed below, if you could help.
1. CC(C)=CCc1c2c(c3occ(-c4ccc(O)cc4)c(=O)c3c1O)C=CC(C)(C)O2
2. C[C@H]1c2cccc(O)c2C(O)=C2C(=O)[C@]3(O)C(O)=C(C(N)=O)C(=O)[C@@H](N(C)C)[C@@H]3[C@@H](O)[C@@H]21

**A:**
0.995
0.998

---

experiment: chemical genetic growth profiling, strain panel (AID 1159580);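 note: tested at 20 µM; growth read once vehicle control cultures reached saturation at 30 °C; 1 = growth at the plate median or of vehicle wells; lower values mean less growth of the strain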; conditions: S. cerevisiae deletion strains, growth OD, locus YNL298W, strain CLA4, hits give low values
The whole screen tested about 5,500 compounds, of which about 2,000 (36%) were called active. Inconclusive results (about 18%) are left out. This is one part of the list.
reported_property: normalized growth
One number for each entry.

Example entries and their recorded answers appear below.
{"columns": ["molecule", "measurement"],
 "data": [
  ["C=C1c2cccc(O)c2C(O)=C2C(=O)[C@]3(O)C(O)=C(C(N)=O)C(=O)[C@@H](N(C)C)[C@@H]3[C@@H](O)[C@H]12", 0.981],
  ["CC(CCc1ccccc1)NCC(O)c1ccc(O)c(C(N)=O)c1 (centres undefined)", 1.02],
  ["CN(C)c1ccc(O)c2c1C[C@H]1C[C@H]3[C@H](N(C)C)C(=O)C(C(N)=O)=C(O)[C@@]3(O)C(=O)C1=C2O", 0.987],
  ["CC(C)=CCc1c2c(c3occ(-c4ccc(O)cc4)c(=O)c3c1O)C=CC(C)(C)O2", 0.991],
  ["CC(=O)O[C@H]1CC[C@@]2(C)C(C[C@@H](OC(C)=O)[C@@]3(C)C4=CC(=O)O[C@@H](c5ccoc5)[C@]4(C)CCC23)C1(C)C (some centres undefined)", 1.01]
]}

I need normalized growth for every entry listed below, if you could help.
1. CC(C)CCCC(C)C1CCC2C3=CC[C@H]4C[C@@H](O)CC[C@]4(C)C3CC[C@@]21C (some centres undefined)
2. COC(=O)c1c(OC)cc2c(c1C)Oc1c(Cl)c(OC(C)=O)c(Cl)c(C)c1C(=O)O2

**A:**
[0.985, 1.03]

I need normalized growth for every entry listed below, if you could help.
1. CC(C)CCCC(C)C1CCC2C3C[C@@H](O)[C@@]4(O)C[C@@H](O)CC[C@]4(C)C3CC[C@]12C (some centres undefined)
2. CC(C)CCCC(C)C1CCC2C3CC(=O)[C@H]4C[C@@H](O)CC[C@]4(C)C3CC[C@]12C (some centres undefined)
3. NCC(=O)c1ccccc1
4. CN(C)[C@@H]1C(=O)C(C(N)=O)=C(O)[C@@]2(O)C(=O)C3=C(O)c4c(O)ccc(Cl)c4[C@@](C)(O)[C@H]3C[C@@H]12

**A:**
1: 1.02; 2: 1.01; 3: 0.994; 4: 1.03

I need normalized growth for every entry listed below, if you could help.
1. CN(C)[C@@H]1C(=O)C(C(N)=O)=C(O)[C@@]2(O)C(=O)C3=C(O)c4c(O)ccc(Cl)c4[C@@H](O)[C@H]3C[C@@H]12
2. CCCSc1ccc2nc(NC(=O)OC)[nH]c2c1
3. CC(C)CCCC(C)[C@H]1CCC2C3CC=C4CC(=O)CC[C@]4(C)C3CC[C@@]21C (some centres undefined)

**A:**
1. 0.993
2. 0.947
3. 0.979
